targetOrTestSystem: T1, IL-36R naturally expressed on OVCAR8 cells and on normal human epidermal keratinocytes (NHK cells) (human, UniProt Q9HB29 20-575)
T1 sequence (looked up): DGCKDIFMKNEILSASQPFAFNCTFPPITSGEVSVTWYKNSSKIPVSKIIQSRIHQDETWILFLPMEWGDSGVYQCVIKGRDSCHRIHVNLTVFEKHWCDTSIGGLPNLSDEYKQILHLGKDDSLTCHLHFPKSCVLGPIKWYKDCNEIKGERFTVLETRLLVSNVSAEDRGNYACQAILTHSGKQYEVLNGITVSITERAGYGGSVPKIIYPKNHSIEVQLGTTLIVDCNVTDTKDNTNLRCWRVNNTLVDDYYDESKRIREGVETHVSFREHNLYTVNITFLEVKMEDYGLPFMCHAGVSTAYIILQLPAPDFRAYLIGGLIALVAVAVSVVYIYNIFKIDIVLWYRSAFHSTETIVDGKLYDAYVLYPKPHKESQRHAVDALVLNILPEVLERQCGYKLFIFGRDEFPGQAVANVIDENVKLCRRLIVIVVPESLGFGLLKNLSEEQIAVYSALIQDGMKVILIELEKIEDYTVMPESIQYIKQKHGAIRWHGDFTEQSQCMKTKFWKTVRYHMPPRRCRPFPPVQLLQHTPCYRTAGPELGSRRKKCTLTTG
testDetails: cell-based or functional assay
propertyName: IC50 (M); hIL36γ; IL-8 production
Give your result in M as a bare value.

hz84C4-1.1 (antibody, human IgG4 S228P, kappa, V domains shown, Humanized, human IgG4 / kappa) VH: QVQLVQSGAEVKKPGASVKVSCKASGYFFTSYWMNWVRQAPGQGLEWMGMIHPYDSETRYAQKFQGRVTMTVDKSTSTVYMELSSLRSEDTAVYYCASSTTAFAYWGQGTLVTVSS VL: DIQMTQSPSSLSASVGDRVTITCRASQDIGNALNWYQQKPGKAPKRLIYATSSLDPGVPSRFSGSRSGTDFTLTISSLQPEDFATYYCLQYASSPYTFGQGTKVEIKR ... 1.44e-11
hz84C4-1.3 (antibody, human IgG4 S228P, kappa, V domains shown, Humanized, human IgG4 / kappa) VH: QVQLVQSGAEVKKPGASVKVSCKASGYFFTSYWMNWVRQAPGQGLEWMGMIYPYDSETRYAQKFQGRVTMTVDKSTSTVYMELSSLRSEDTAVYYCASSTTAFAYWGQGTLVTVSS VL: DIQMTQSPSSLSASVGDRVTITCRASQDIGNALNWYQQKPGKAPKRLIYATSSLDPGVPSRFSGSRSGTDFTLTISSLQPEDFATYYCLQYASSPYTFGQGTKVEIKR ... 2.13e-09

Next item in the queue.
Request: Which measured IC50 (M); hIL36γ; IL-8 production value corresponds to hz84C4-2.2 (antibody, human IgG4 S228P, kappa, V domains shown, Humanized, human IgG4 / kappa) VH: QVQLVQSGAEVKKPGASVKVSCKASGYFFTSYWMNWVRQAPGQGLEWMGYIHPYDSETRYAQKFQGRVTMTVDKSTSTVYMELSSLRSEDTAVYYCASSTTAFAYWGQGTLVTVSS VL: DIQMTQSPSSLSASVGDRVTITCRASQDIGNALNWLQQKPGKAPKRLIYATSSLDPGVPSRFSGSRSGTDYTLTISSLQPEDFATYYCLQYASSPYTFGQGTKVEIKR ?
Result: 6.21e-11
